Tested On: NK3-receptor (Cavia porcellus, UniProt P30098)
Construct: from tissue; host or cells: whole animal (Dunkin Hartley guinea pigs), in vivo
Sequence (P30098 whole entry): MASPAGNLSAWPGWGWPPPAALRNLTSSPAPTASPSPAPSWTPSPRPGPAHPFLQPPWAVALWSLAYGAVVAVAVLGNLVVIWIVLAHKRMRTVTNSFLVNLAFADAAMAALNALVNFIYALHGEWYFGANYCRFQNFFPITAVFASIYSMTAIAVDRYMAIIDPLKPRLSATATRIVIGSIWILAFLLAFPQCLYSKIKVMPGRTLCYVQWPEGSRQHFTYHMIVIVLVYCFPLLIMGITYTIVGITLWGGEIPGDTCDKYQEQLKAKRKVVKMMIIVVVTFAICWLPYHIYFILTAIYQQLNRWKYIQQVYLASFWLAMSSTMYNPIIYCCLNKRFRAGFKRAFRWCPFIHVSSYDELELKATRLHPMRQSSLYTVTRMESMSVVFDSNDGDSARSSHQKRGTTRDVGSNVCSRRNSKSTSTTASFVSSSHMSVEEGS
Measurement Description: NK-3-receptor-antagonistic effectiveness in vivo, senktide-induced hypertension in guinea pigs
Test Parameters: guinea pig, senktide 0.4 μg/kg i.v., intravenous administration
Label satisfied when ID50 (iv), inhibition of blood pressure is strictly below 0.5 mg/kg; at or above that, label not satisfied.

## Task Hello, is ID50 (iv), inhibition of blood pressure of the following compound strictly smaller than 0.5 mg/kg? CN(C)C(=O)C1(N2CCCCC2)CCN(CC[C@H](CN(C)C(=O)c2ccc(F)c(F)c2)c2ccc(Cl)c(Cl)c2)CC1
## Result not satisfied

## Task For CN(C)C(=O)C1(N2CCCCC2)CCN(CC[C@H](CN(C)C(=O)c2cc(F)ccc2F)c2ccc(Cl)c(Cl)c2)CC1 , is the recorded ID50 (iv), inhibition of blood pressure below the cut-off of 0.5 mg/kg?
## Result satisfied

## Task ID50 (iv), inhibition of blood pressure under 0.5 mg/kg? Item: CN(C)C(=O)C1(N2CCCCC2)CCN(CC[C@H](CN(C)C(=O)c2ccc(F)cc2)c2ccc(Cl)c(Cl)c2)CC1
## Result not satisfied

## Task Input CN(C)C(=O)C1(N2CCCCC2)CCN(CC[C@H](CN(C)C(=O)c2cc(C#N)c3ccccc3c2)c2ccc(Cl)c(Cl)c2)CC1 ; condition: ID50 (iv), inhibition of blood pressure strictly below 0.5 mg/kg. Does it hold?
## Result not satisfied

----------
Tested On: NK2-receptor (Cavia porcellus, UniProt Q64077)
Construct: from tissue; host or cells: whole animal (Pirbright-White guinea pigs), in vivo
Sequence (Q64077 1-402): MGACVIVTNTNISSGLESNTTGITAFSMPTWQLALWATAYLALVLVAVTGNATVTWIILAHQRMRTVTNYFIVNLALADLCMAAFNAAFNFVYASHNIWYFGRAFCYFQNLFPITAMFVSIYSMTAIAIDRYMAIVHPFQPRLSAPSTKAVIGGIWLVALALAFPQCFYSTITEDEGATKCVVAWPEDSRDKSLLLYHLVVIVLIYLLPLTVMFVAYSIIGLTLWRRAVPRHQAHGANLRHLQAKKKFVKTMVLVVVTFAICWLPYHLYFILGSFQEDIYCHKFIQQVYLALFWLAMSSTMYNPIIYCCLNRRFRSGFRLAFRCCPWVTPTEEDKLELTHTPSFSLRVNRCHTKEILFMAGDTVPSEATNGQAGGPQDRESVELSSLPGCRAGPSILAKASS
Measurement Description: NK2-receptor-antagonistic effectiveness in vivo, NKA-induced late hypotension, bronchoconstriction and colonic pressure in anaesthetised guinea pigs
Test Parameters: guinea pig, NKA 200 pmol/animal i.v., intravenous administration
Value Type: ED50 iv after 1 min (cumulative), NK2 (colonic motility) (µmol/kg)
# number only, unit µmol/kg dropped from output

[
  {
    "Compound": "CN(C)C(=O)C1(N2CCCCC2)CCN(CC[C@H](CN(C)C(=O)c2cc(F)cc(F)c2)c2ccc(Cl)c(Cl)c2)CC1 [compound 9]",
    "Result Value": 0.053
  },
  {
    "Compound": "CN(C)C(=O)C1(N2CCCCC2)CCN(CC[C@H](CN(C)C(=O)c2ccc(F)c(Cl)c2)c2ccc(Cl)c(Cl)c2)CC1 [compound 8]",
    "Result Value": 0.294
  }
]

## Task Identify the reported ED50 iv after 1 min (cumulative), NK2 (colonic motility) for the following entry. CN(C)C(=O)C1(N2CCCCC2)CCN(CC[C@H](CN(C)C(=O)c2ccc(F)c(F)c2)c2ccc(Cl)c(Cl)c2)CC1 [compound 14]
## Result 0.245

## Task Output measured ED50 iv after 1 min (cumulative), NK2 (colonic motility) for this item: CN(C)C(=O)C1(N2CCCCC2)CCN(CC[C@H](CN(C)C(=O)c2ccc(F)cc2)c2ccc(Cl)c(Cl)c2)CC1 [compound 4]
## Result 0.053

----------
Tested On: human NK2-receptor (Homo sapiens, UniProt P21452)
Sequence (P21452 whole entry): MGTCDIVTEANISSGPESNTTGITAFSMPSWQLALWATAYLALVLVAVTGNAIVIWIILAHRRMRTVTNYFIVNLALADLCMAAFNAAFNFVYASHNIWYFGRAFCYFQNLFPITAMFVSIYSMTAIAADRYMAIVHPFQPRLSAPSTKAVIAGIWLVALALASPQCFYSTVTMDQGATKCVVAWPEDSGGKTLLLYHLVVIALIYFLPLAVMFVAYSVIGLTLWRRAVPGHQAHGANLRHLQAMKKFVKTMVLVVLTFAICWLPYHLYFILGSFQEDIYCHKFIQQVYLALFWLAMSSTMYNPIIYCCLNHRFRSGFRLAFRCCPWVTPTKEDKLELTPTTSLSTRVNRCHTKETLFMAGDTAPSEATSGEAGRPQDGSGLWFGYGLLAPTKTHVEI
Measurement Description: Binding potency of the test substances to NK2-receptors in vitro ([3H]-SR 48968 displacement)
Design: expressed in transfected cells; host or cells: CHO cells (membrane preparation)
Test Parameters: human NK2-receptor in CHO cell membranes, [3H]-SR 48968 (saredutant); average of at least three measurements; read-out: pKi, binding potency to NK2-receptors (converted)
Value Type: Ki (nM)
State just the number; it will be interpreted in nM.

Record excerpt, results attached:
[
  {
    "Compound": "Cc1c(C(=O)N(C)CC(CCN2CCC(C(=O)N(C)C)(N3CCCCC3)CC2)c2ccc(Cl)c(Cl)c2)nnn1Cc1ccccc1 (stereo not shown)",
    "Value Type": "Ki",
    "Result Value": 6.31
  },
  {
    "Compound": "CN(C)C(=O)C1(N2CCCCC2)CCN(CCC(CN(C)C(=O)c2cc(Cl)ccc2F)c2ccc(Cl)c(Cl)c2)CC1 (stereo not shown)",
    "Value Type": "Ki",
    "Result Value": 1.26
  }
]

Switching to the query record.
## Task Entry CN(C)C(=O)C1(N2CCCCC2)CCN(CCC(CN(C)C(=O)c2cccn2C)c2ccc(Cl)c(Cl)c2)CC1 (stereo not shown) needs its Ki filled in; supply it.
## Result 2.51

----------
Tested On: NK2-receptor (Cavia porcellus, UniProt Q64077)
Construct: from tissue; host or cells: whole animal (Pirbright-White guinea pigs), in vivo
Measurement Description: NK2-receptor-antagonistic effectiveness in vivo, NKA-induced late hypotension, bronchoconstriction and colonic pressure in anaesthetised guinea pigs
Test Parameters: guinea pig, iv, read-out: ED50 iv after 1 min (cumulative), NK2 (colonic motility)
# Lookup of reported ED50 keyed by entry
Express the result in µmol/kg but write the number alone.

[
  {
    "Molecule": "CN(C)C(=O)C1(N2CCCCC2)CCN(CCC(CN(C)C(=O)c2ccc(Cl)nc2)c2ccc(Cl)c(Cl)c2)CC1 (stereo not shown)",
    "Unit Of Measurement": "µmol/kg",
    "ED50": 0.068
  },
  {
    "Molecule": "CN(C)C(=O)C1(N2CCCCC2)CCN(CCC(CN(C)C(=O)c2cccnc2)c2ccc(Cl)c(Cl)c2)CC1 (stereo not shown)",
    "Unit Of Measurement": "µmol/kg",
    "ED50": 0.028
  }
]

## Task Give a short answer stating reported ED50 for CN(C)C(=O)C1(N2CCCCC2)CCN(CC[C@H](CN(C)C(=O)c2ccc(O)cc2)c2ccc(Cl)c(Cl)c2)CC1 .
## Result 0.096

----------
Tested On: human NK3 receptor (Homo sapiens, UniProt P29371)
Sequence (P29371 whole entry): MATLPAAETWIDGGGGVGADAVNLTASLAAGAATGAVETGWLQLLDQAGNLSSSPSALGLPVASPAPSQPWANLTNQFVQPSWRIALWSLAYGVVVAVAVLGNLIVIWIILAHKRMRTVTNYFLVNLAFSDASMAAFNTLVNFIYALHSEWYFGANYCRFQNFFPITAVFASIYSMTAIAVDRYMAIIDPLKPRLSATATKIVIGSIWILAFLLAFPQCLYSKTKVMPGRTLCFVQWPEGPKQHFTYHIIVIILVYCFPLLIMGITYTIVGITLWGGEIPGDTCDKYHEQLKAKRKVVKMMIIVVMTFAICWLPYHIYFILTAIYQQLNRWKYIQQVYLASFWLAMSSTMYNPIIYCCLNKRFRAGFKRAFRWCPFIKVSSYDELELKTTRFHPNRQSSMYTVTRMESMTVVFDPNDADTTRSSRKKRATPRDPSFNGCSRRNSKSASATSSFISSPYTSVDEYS
Measurement Description: Functional cellular test, Ca2+ measurements using aequorin for NK3 activity
Type: cell-based
Set-up: expressed in transfected cells; host or cells: cell line co-expressing mitochondrially targeted apoaequorin (CHO according to b76/b77)
Test Parameters: cell line with human NK3 receptor and apoaequorin, agonist senktide 5x10-8 M
Value Type: pA2 data for NK3
Write the value as a bare number.

[
  {
    "Compound": "CN(C)C(=O)C1(N2CCCCC2)CCN(CC[C@H](CN(C)C(=O)c2ccc(F)c(F)c2F)c2ccc(Cl)c(Cl)c2)CC1 [compound 16]",
    "pA2 data for NK3": 7.9
  },
  {
    "Compound": "CN(C)C(=O)C1(N2CCCCC2)CCN(CC[C@H](CN(C)C(=O)c2ccc(F)c(Cl)c2)c2ccc(Cl)c(Cl)c2)CC1 [compound 8]",
    "pA2 data for NK3": 8.4
  },
  {
    "Compound": "CN(C)C(=O)C1(N2CCCCC2)CCN(CC[C@H](CN(C)C(=O)C2CCCCC2)c2ccc(Cl)c(Cl)c2)CC1 [compound 3]",
    "pA2 data for NK3": 8.2
  },
  {
    "Compound": "CN(C)C(=O)C1(N2CCCCC2)CCN(CC[C@H](CN(C)C(=O)c2ccc(F)cc2)c2ccc(Cl)c(Cl)c2)CC1 [compound 4]",
    "pA2 data for NK3": 8.2
  }
]

## Task Please give measured pA2 data for NK3 of the following entry: CN(C)C(=O)C1(N2CCCCC2)CCN(CC[C@H](CN(C)C(=O)c2ccc(F)c(F)c2)c2ccc(Cl)c(Cl)c2)CC1 [compound 14]
## Result 8.1

## Task Report measured pA2 data for NK3; entry is CN(C)C(=O)C1(N2CCCCC2)CCN(CC[C@H](CN(C)C(=O)c2cc(C#N)c3ccccc3c2)c2ccc(Cl)c(Cl)c2)CC1 [compound 11]
## Result 8.1

## Task Respond only with pA2 data for NK3 recorded for CN(C)C(=O)C1(N2CCCCC2)CCN(CC[C@H](CN(C)C(=O)c2ccccc2O)c2ccc(Cl)c(Cl)c2)CC1 [compound 12]
## Result 7.9

## Task Specify reported pA2 data for NK3 for the compound shown: CN(C)C(=O)C1(N2CCCCC2)CCN(CC[C@H](CN(C)C(=O)c2cc(F)ccc2F)c2ccc(Cl)c(Cl)c2)CC1 [compound 15]
## Result 8.1

## Task Item CN(C)C(=O)C1(N2CCCCC2)CCN(CC[C@H](CN(C)C(=O)c2ccc(F)cc2F)c2ccc(Cl)c(Cl)c2)CC1 [compound 13] : provide pA2 data for NK3
## Result 8.0

## Task State, in one line, measured pA2 data for NK3 of CN(C)C(=O)C1(N2CCCCC2)CCN(CC[C@H](CN(C)C(=O)c2cc(F)cc(F)c2)c2ccc(Cl)c(Cl)c2)CC1 [compound 9]
## Result 8.0
